Data provenance is the supplement of paper PMC9112550.

# System: Escherichia coli TOP10;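 note: peptides expressed intracellularly from a pBAD plasmid library in pooled LB shake-flask culture, induced with 0.3% L-arabinose, DNA abundance read by NGS, three biological replicates, DESeq2 with apeglm shrinkage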
# Test description: shrunken log2 fold change of peptide-encoding DNA abundance (4.5 h post-induction vs induction); higher = less antimicrobial activity (less host growth inhibition)
# Condition parameters: time post-induction: 4.5 h; library: site-saturation at positions 5, 18, 19, 20
Quick reference: shrunken log2 fold change of the listed items.
Attribute measured: shrunken log2 fold change

In [3]: df
Out[3]:
             item_sequence  recorded_result
0  RRIRLRPPRLPRPRPRPYCFPRP           -0.909
1  RRIRERPPRLPRPRPRPEYVPRP          -0.0151
2  RRIRQRPPRLPRPRPRPQQGPRP           -0.147
3  RRIRYRPPRLPRPRPRPGCWPRP            0.289
4  RRIRTRPPRLPRPRPRPIKRPRP          -0.0164
5  RRIRPRPPRLPRPRPRPWKAPRP           -0.133
6  RRIRGRPPRLPRPRPRPVDMPRP            0.255
7  RRIRWRPPRLPRPRPRPVPWPRP            0.374
